- study.system: human EGFR L858R (NIH/3T3 cells) (Homo sapiens, UniProt P00533, L858R)
- Sequence (P00533 25-1210 L858R): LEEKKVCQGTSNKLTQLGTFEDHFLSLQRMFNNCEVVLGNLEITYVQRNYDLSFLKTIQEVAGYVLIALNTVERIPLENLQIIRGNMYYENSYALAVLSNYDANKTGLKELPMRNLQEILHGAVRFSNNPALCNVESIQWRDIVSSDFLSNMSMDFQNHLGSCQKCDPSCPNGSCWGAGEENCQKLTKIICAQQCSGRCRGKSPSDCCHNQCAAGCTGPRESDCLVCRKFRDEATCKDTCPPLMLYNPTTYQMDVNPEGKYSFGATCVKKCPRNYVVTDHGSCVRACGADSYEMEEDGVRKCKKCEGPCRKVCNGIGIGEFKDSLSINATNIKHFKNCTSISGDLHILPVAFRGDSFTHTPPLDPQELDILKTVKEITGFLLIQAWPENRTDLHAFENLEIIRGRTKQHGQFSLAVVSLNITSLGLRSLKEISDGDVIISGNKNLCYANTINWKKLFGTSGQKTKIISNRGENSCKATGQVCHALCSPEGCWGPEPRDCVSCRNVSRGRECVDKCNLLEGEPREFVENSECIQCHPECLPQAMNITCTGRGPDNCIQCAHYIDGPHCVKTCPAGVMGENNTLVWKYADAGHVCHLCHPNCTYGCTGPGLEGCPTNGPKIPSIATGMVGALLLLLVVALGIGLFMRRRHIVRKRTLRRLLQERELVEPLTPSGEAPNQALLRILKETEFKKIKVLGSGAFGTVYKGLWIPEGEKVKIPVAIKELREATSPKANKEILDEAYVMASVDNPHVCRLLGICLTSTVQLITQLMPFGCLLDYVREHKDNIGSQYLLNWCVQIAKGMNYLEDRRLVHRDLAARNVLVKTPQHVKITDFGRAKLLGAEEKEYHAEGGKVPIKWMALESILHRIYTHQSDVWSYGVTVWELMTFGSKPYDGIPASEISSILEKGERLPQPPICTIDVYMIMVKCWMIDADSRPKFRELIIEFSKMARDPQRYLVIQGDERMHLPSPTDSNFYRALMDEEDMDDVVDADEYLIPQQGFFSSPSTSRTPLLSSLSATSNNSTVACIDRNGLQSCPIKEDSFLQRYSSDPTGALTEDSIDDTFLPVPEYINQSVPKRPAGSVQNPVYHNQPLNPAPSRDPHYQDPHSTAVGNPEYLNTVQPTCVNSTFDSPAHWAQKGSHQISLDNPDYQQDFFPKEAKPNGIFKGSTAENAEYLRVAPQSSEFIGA
- measurement.protocol: EGFR target modulation in engineered NIH/3T3 cell lines (phospho-EGFR Y1068 AlphaLISA), EGFR L858R
- Type: cell-based
- condition.info: engineered NIH/3T3 cells, read-out: NIH3T3 IC50 (μM) EGFR (L858R)
value.type: IC50 (µM)

C=CC(=O)N1CCOCC(n2c(NC(=O)c3cccc(C(F)(F)F)c3)nc3cccc(C)c32)C1 (single isomer, unassigned) [Example 21-7A] = 3.2

a. Cc1nccc(C(=O)Nc2nc3cccc(C)c3n2C2CCCCN(C(=O)/C=C/CN(C)C)C2)n1 (centres unmarked)
b. Cc1cc(C(=O)Nc2nc3cccc(Cl)c3n2[C@@H]2CCCCN(C(=O)/C=C/CN(C)C)C2)cc(C)n1
**Q:** Which value of IC50 is greater, the one for a or the one for b ? Identify your selection by its label.
**A:** a

I. Cc1cccc2nc(NC(=O)c3ccnc(C(F)(F)F)c3)n([C@H]3CCCCN(C(=O)/C=C/CN(C)C)C3)c12 (single isomer, unassigned)
II. Cc1cccc2nc(NC(=O)c3cnccn3)n(C3CCCCN(C(=O)/C=C/CN(C)C)C3)c12 (centres unmarked)
III. Cc1cc(C(=O)Nc2nc3cccc(C)c3n2[C@@H]2CCCN(C(=O)/C=C/CN(C)C)C2)ccn1
IV. C=CC(=O)N1CCC[C@@H](n2c(NC(=O)c3cccc(C(F)(F)F)c3)nc3cc(COC)ccc32)C1
**Q:** Descending sort on IC50 required. Output the labels ranked as instructed.
**A:** I, IV, II, III

1. C=CC(=O)N1CCCC(n2c(NC(=O)c3cccc(C(F)(F)F)c3)nc3c2CCN(C(C)=O)C3)C1 (centres unmarked)
2. CN(C)C/C=C/C(=O)N1CCCCC(n2c(NC(=O)c3cccc(C(F)(F)F)c3)nc3cc(CO)cc(C#N)c32)C1 (centres unmarked)
3. Cc1cccc2nc(NC(=O)c3ccc4nccn4c3)n(C3CCCCN(C(=O)/C=C/CN(C)C)C3)c12 (centres unmarked)
**Q:** Form: Sort by [IC50] Order [ ascending ] Output the labels ranked as instructed.
**A:** 3, 2, 1
(3: 0.002 µM, 2: 0.019 µM, 1: 1.75 µM)
